Data origin, for the record: ChEMBL document CHEMBL4265931

Each record here notes measured Activity.
- measurement.description: Antioxidant activity assessed as DPPH free radical scavenging at 465 uM after 20 mins by UV-Vis spectrophotometric analysis relative to control
- Format: functional

structure.notation	Activity, %
Cl.O=C(CN1CCC(Cc2ccccc2)CC1)c1ccc2ccccc2c1	65.7
COc1ccc(C(=O)CN2CCC(Cc3ccccc3)CC2)cc1.Cl	65.6
Cl.O=C(CCN1CCCCC1)c1ccc2ccccc2c1	18.3
Cl.O=C(CCN1CCOCC1)c1ccc2ccccc2c1	8.14

====

- measurement.description: Antioxidant activity assessed as DPPH free radical scavenging at 465 uM after 20 mins by UV-Vis spectrophotometric analysis relative to control
- Type: functional
readout.name: Activity (%)

molecule	quantity.unit	measured.number
COc1cc2c(cc1OC)C(=O)C(CC1CCN(Cc3ccccc3)CC1)C2 (stereo not given)	%	4.4
COc1ccc(C(=O)CCCN2CCC(Cc3ccccc3)CC2)cc1.Cl	%	12.9
Cl.O=C(CCN1CCOCC1)c1ccc(-c2ccccc2)cc1	%	22.1
COc1cc(/C=C/C(=O)CC(=O)/C=C/c2ccc(O)c(OC)c2)ccc1O	%	71.3
Cl.O=C(CCCN1CCC(Cc2ccccc2)CC1)c1ccc2ccccc2c1	%	31.6

====

- measurement.description: in vitro
- run.parameters: human, sh-sy5y
- Description: Cytotoxicity against human SH-SY5Y cells assessed as cell viability at 10 uM after 48 hrs by MTS assay relative to control

compound	quantity.unit	viability at 48 h, 10 µM
COc1cc2c(cc1OC)C(=O)C(CC1CCN(Cc3ccccc3)CC1)C2 (stereo unspecified)	%	94.3

====

- measurement.description: in vitro
- run.parameters: human, sh-sy5y

compound	viability at 48 h, 25 µM, %
COc1cc2c(cc1OC)C(=O)C(CC1CCN(Cc3ccccc3)CC1)C2 (stereo unspecified)	80.4

====

- measurement.description: Selectivity ratio of Ki for S2R in rat liver membranes to Ki for S1R in guinea pig brain cortex membranes
- Assay type: cell membranes

structure.notation	Ratio Ki
COc1ccc(C(=O)CCCN2CCC(Cc3ccccc3)CC2)cc1.Cl	6.8
O=C(CCN1CCCCC1)c1ccccc1	4.4
O=C(CCCN1CCC(Cc2ccccc2)CC1)c1ccc(-c2ccccc2)cc1	5.2
Cl.O=C(CCCN1CCC(Cc2ccccc2)CC1)c1ccc2ccccc2c1	2.4
COc1ccc2cc(C(=O)CCCN3CCC(Cc4ccccc4)CC3)ccc2c1	1.6
O=C(CCN1CCC(Cc2ccccc2)CC1)c1ccc(-c2ccccc2)cc1	23.4
COc1cccc(C(=O)CCCN2CCC(Cc3ccccc3)CC2)c1.Cl	2.5
Cl.O=C(CN1CCC(Cc2ccccc2)CC1)c1ccc2ccccc2c1	30
Cl.O=C(CCN1CCCCC1)c1ccc(-c2ccccc2)cc1	30.8
Cl.O=C(CCN1CCC(Cc2ccccc2)CC1)c1ccccc1	363
C[C@H](CCN1CCCCC1)c1ccc(-c2ccccc2)cc1	25

====

Reported viability at 48 h, 25 µM by item:
- measurement.description: in vitro
- run.parameters: human, SH-SY5Y cells

structure.notation	quantity.unit	viability at 48 h, 25 µM
COc1cc(/C=C/C(=O)CC(=O)/C=C/c2ccc(O)c(OC)c2)ccc1O	%	58.7
Cl.O=C(CCN1CCOCC1)c1ccc(-c2ccccc2)cc1	%	66
COc1ccc(C(=O)CCN2CCC(Cc3ccccc3)CC2)cc1.Cl	%	50.2
COc1cccc(C(=O)CCCN2CCC(Cc3ccccc3)CC2)c1.Cl	%	85.6
Cl.O=C(CCN1CCC(Cc2ccccc2)CC1)c1ccccc1	%	44
Cl.O=C(CCN1CCCCC1)c1ccc(-c2ccccc2)cc1	%	49.3
Cl.O=C(CN1CCC(Cc2ccccc2)CC1)c1ccc2ccccc2c1	%	77.6
C[C@H](CCN1CCCCC1)c1ccc(-c2ccccc2)cc1	%	77.1
Cl.O=C(CCN1CCCCC1)c1ccc2ccccc2c1	%	42
COc1ccc(C(=O)CCCN2CCC(Cc3ccccc3)CC2)cc1.Cl	%	87
COc1ccc(C(=O)CN2CCC(Cc3ccccc3)CC2)cc1.Cl	%	69.3
Cl.O=C(CCCN1CCC(Cc2ccccc2)CC1)c1ccc2ccccc2c1	%	57
Cl.O=C(CCCN1CCC(Cc2ccccc2)CC1)c1ccccc1	%	95
COc1ccc(C(=O)CCN2CCCCC2)cc1.Cl	%	49.4
Cl.O=C(CCN1CCOCC1)c1ccc2ccccc2c1	%	38
